system: Caco-2 cell line; test: Cytotoxicity MTS assay, Caco-2 cell line; format: cell-based; conditions: 0.5μM; second assay; Caco-2 cell line
For each of the molecules below, state its OD490 Well 1.

Notebook: CCOC(=O)c1[nH]c(C2NC(=S)NC(C)=C2C(=O)OC)c(C(=O)OCC)c1C (centres unmarked) , OD490 Well 1 read as 0.5732

The molecule listed as CCOC(=O)c1[nH]c(C2NC(=O)NC(C)=C2C(=O)Nc2ccccc2OC)c(C(=O)OC)c1C (centres unmarked) shows OD490 Well 1 equal to 0.7283

GET /value?item= CCOC(=O)c1[nH]c(C2NC(=O)NC(C)=C2C(=O)Nc2ccc(Cl)cc2)c(C(=O)OCC)c1C (centres unmarked) &field=OD490 Well 1 returns 0.6374

Per the records, this molecule ( CCOC(=O)c1c(C2NC(=O)NC(C)=C2C(=O)Nc2ccccc2C)[nH]c(C(=O)OC)c1C (centres unmarked) [D2] ) has OD490 Well 1 equal to 0.7084

The reported OD490 Well 1 of the molecule CCOC(=O)c1c(C2NC(=O)NC(C)=C2C(=O)Nc2ccccc2OC)[nH]c(C(=O)OC)c1C (centres unmarked) [D1] was 0.6391

Entry CCOC(=O)C1=C(C)NC(=S)NC1c1cccc(O)c1 (centres unmarked) [Monastrol, monastrol, reference compound] ; OD490 Well 1 = 0.6307

The recorded OD490 Well 1 for COC(=O)c1[nH]c(C2NC(=S)NC(C)=C2C(=O)c2ccccc2)c(C(=O)OC)c1C (centres unmarked) is 0.6506

Record summary for CCOc1ccccc1C1NC(=S)NC(C)=C1C(=O)Nc1ccc(Cl)cc1 (centres unmarked) : reported OD490 Well 1 = 0.6499

* * *

system: Caco-2 cell line; assay: Cytotoxicity MTS assay, Caco-2 cell line; format: cell-based; conditions: 0.5μM; first assay; Caco-2 cell line
Assign OD490 Well 1 to each entry below.
Could you keep your reply to the number by itself?

For record CCOC(=O)c1[nH]c(C2NC(=O)NC(C)=C2C(=O)Nc2ccccc2C)c(C(=O)OC)c1C (centres unmarked) [D4] the listed OD490 Well 1 is 0.5884

Entry CCOC(=O)c1c(C2NC(=O)NC(C)=C2C(=O)Nc2ccccc2C)[nH]c(C(=O)OC)c1C (centres unmarked) [D2] — recorded OD490 Well 1 = 0.5887

Recorded OD490 Well 1 (compound CCOC(=O)c1c(C2NC(=O)NC(C)=C2C(=O)Nc2ccccc2OC)[nH]c(C(=O)OC)c1C (centres unmarked) [D1] ): 0.5649

Entry under test: CCOC(=O)c1[nH]c(C2NC(=O)NC(C)=C2C(=O)Nc2ccccc2OC)c(C(=O)OC)c1C (centres unmarked) [D3] . Its OD490 Well 1 was 0.6262

Memo: CCOC(=O)c1[nH]c(C2NC(=S)NC(C)=C2C(=O)OC)c(C(=O)OCC)c1C (centres unmarked) [D12] , reported OD490 Well 1: 0.4995

get_value(item= CCOC(=O)c1[nH]c(C2NC(=O)NC(C)=C2C(=O)Nc2ccc(Cl)cc2)c(C(=O)OCC)c1C (centres unmarked) [D7] , readout=OD490 Well 1) returns 0.5534

Briefly, OD490 Well 1 measured for COC(=O)c1[nH]c(C2NC(=S)NC(C)=C2C(=O)c2ccccc2)c(C(=O)OC)c1C (centres unmarked) [D14] : 0.5553

// recorded OD490 Well 1 for CCOC(=O)C1=C(C)NC(=S)NC1c1cccc(O)c1 (centres unmarked) [Monastrol, monastrol, reference compound] : 0.6883
